Could you please report measured Kd for the items listed next?
# subject.of.test: T1, human PD-1 (recombinant, titrated in BIAcore) (human, UniProt Q15116 25-170)
# T1 construct: extracellular domain; also called recombinant human PD-1 extracellular domain
# assay.name: SPR BIAcore 3000; antibody captured by anti-human Fc, human PD-1 titrated;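 also: CM5 chip with amine-coupled goat anti-human Fc F(ab′)₂, HBS-EP running buffer at 10 µL/min, blank-surface-subtracted sensorgrams fitted in BIAevaluation 3.2 for kinetic constants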
Answers are plain numbers, in nM.

• 949 VK1 gL12 gH20b (antibody, V domains shown, Humanised; human kappa constant (Km3)) VH: EVQLVQSGAEVKKPGSSVKVSCKASGYTFTTYPIEWVRQAPGQGLEWMGNFHPYNDDTKYNEKFKGRVTITADKSTSTAYMELSSLRSEDTAVYYCARENYGSHGGFVYWGQGTLVTVS VL: ENVMTQSPFSLSASVGDRVTITCRASSSVISSYLHWYQQKPAKAPKLFIYSTSNLASGVPSRFSGSGSGTDYTLTISSLQPEDFATYYCQQYNGYPLTFGGGTKVEIK = 3.8
• 949 VK3 gL1 gH1b (antibody, V domains shown, Humanised; human kappa constant (Km3)) VH: EVQLVQSGAEVKKPGSSVKVSCKAFGYTFTTYPIEWMRQAHGQGLEWIGNFHPYNDDTKYNEKFKGRVTITVDKSTTTVYMELSSLRSEDTAVYYCARENYGSHGGFVYWGQGTLVTVS VL: ENVLTQSPGTLSLSPGERATLSCRASSSVISSYLHWYQQKPGQAPRLWIYSTSNLASGVPDRFSGSGSGTSYTLTISRLEPEDFATYYCQQYNGYPLTFGGGTKVEIK = 3.14
• 949 VK3 gL1 gH1a (antibody, V domains shown, Humanised; human kappa constant (Km3)) VH: EVQLVQSGAEVKKPGASVKVSCKAFGYTFTTYPIEWMRQAHGQGLEWIGNFHPYNDDTKYNEKFKGRVTMTVDKSTTTVYMELSSLRSEDTAVYYCARENYGSHGGFVYWGQGTLVTVS VL: ENVLTQSPGTLSLSPGERATLSCRASSSVISSYLHWYQQKPGQAPRLWIYSTSNLASGVPDRFSGSGSGTSYTLTISRLEPEDFATYYCQQYNGYPLTFGGGTKVEIK = 4.02
• 949 VK1 gL11 gH1a (antibody, V domains shown, Humanised; human kappa constant (Km3)) VH: EVQLVQSGAEVKKPGASVKVSCKAFGYTFTTYPIEWMRQAHGQGLEWIGNFHPYNDDTKYNEKFKGRVTMTVDKSTTTVYMELSSLRSEDTAVYYCARENYGSHGGFVYWGQGTLVTVS VL: ENVLTQSPFSLSASVGDRVTITCRASSSVISSYLHWYQQKPAKAPKLWIYSTSNLASGVPDRFSGSGSGTSYTLTISSLQPEDFATYYCQQYNSYPLTFGGGTKVEIK = 5.54
• antibody CA051-00949 (949), parental variable regions, murine IgG1 (antibody, V domains shown, also called Clone 19) VH: QVQLQQSGAELVKPGASVKMSCKAFGYTFTTYPIEWMKQNHGKSLEWIGNFHPYNDDTKYNEKFKGKAKLTVEKSSTTVYLELSRLTSDDSAVYYCARENYGSHGGFVYWGQGTLVTVS VL: ENVLTQSPAIMSASPGEKVTMTCRASSSVISSYLHWYQQKSGASPKLWIYSTSNLASGVPDRFSGSGSGTSYSLTISSVEAEDAATYYCQQYNGYPLTFGAGTKLEIK = 5.07

State recorded Kd for all listed binders.
1. 949 VK1 gL12 gH20a (antibody, V domains shown, Humanised; human kappa constant (Km3)) VH: EVQLVQSGAEVKKPGASVKVSCKAFGYTFTTYPIEWVRQAPGQGLEWMGNFHPYNDDTKYNEKFKGRVTMTRDTSTSTVYMELSSLRSEDTAVYYCARENYGSHGGFVYWGQGTLVTVS VL: ENVMTQSPFSLSASVGDRVTITCRASSSVISSYLHWYQQKPAKAPKLFIYSTSNLASGVPSRFSGSGSGTDYTLTISSLQPEDFATYYCQQYNGYPLTFGGGTKVEIK
2. 949 chimeric (949 variable regions with human IgG4 constant domains) (antibody, V domains shown, also called original CA949 construct, cLcH) VH: QVQLQQSGAELVKPGASVKMSCKAFGYTFTTYPIEWMKQNHGKSLEWIGNFHPYNDDTKYNEKFKGKAKLTVEKSSTTVYLELSRLTSDDSAVYYCARENYGSHGGFVYWGQGTLVTVS VL: ENVLTQSPAIMSASPGEKVTMTCRASSSVISSYLHWYQQKSGASPKLWIYSTSNLASGVPDRFSGSGSGTSYSLTISSVEAEDAATYYCQQYNGYPLTFGAGTKLEIK

1: 3.38; 2: 5.98

// input: 3 binders below; output: Kd for each
1. 949 VK1 gL14 gH8b (antibody, V domains shown, Humanised; human kappa constant (Km3)) VH: EVQLVQSGAEVKKPGSSVKVSCKAFGYTFTTYPIEWMRQAHGQGLEWIGNFHPYNDDTKYNEKFKGRVTITADKSTSTAYMELSSLRSEDTAVYYCARENYGSHGGFVYWGQGTLVTVS VL: ENVMTQSPFSLSASVGDRVTITCRASSSVISSYLHWYQQKPAKAPKLFIYSTSNLASGVPSRFSGSGSGTDYTLTISSLQPEDFATYYCQQYNSYPLTFGGGTKVEIK
2. 949 VK1 gL14 gH8a (antibody, V domains shown, Humanised; human kappa constant (Km3)) VH: EVQLVQSGAEVKKPGASVKVSCKAFGYTFTTYPIEWMRQAHGQGLEWIGNFHPYNDDTKYNEKFKGRVTMTRDTSTSTVYMELSSLRSEDTAVYYCARENYGSHGGFVYWGQGTLVTVS VL: ENVMTQSPFSLSASVGDRVTITCRASSSVISSYLHWYQQKPAKAPKLFIYSTSNLASGVPSRFSGSGSGTDYTLTISSLQPEDFATYYCQQYNSYPLTFGGGTKVEIK
3. 949 VK1 gL1 gH1a (antibody, V domains shown, Humanised; human kappa constant (Km3); Heavy V regions were cloned into gamma-4P (S241P), gamma-4P delta Lys and gamma-1 delta Lys vectors) VH: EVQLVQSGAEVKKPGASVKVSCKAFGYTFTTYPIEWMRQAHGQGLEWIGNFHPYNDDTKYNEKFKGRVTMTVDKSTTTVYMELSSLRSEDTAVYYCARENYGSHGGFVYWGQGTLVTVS VL: ENVLTQSPFSLSASVGDRVTITCRASSSVISSYLHWYQQKPAKAPKLWIYSTSNLASGVPDRFSGSGSGTSYTLTISSLQPEDFATYYCQQYNGYPLTFGGGTKVEIK

[4.38, 4.75, 3.71]
